meta.source: patent US8962263B2

system: ezrin; test: phosphotyrosine-protein based elisa for ezrin tyrosine phosphorylation upon ICAM-2 ligation; format: cell-based, human; details: Jurkat cells
measured.quantity: tyrosine phosphorylation of ezrin

{"compound": "CN1CCCC1CCn1cc(C2=C(c3c[nH]c4ccccc34)C(=O)NC2=O)c2ccccc21 (stereo not shown) [bisindolymaleimide II]", "assayed.target": "ezrin", "reported.measurement": "minor affects"}
{"compound": "CN(C)CCCn1cc(C2=C(c3c[nH]c4ccccc34)C(=O)NC2=O)c2ccccc21 [bisindolymaleimide I]", "assayed.target": "ezrin", "reported.measurement": "minor affects"}

###

tested on: LFA-1; test: LFA-1 activation by mAb24-Alexa633 staining, flow cytometry; format: cell-based, human; details: Jurkat cells; agents 10 μM 30 min, PMA 1 μg/ml, prior to ICAM-2 10 μg/ml 30 min

{"smiles.text": "CC(=O)O[C@H]1C(=O)[C@@]2(C)[C@H]([C@H](OC(=O)c3ccccc3)[C@]3(O)C[C@H](OC(=O)[C@H](O)[C@@H](NC(=O)c4ccccc4)c4ccccc4)C(C)=C1C3(C)C)[C@]1(OC(C)=O)CO[C@@H]1C[C@@H]2O", "LFA-1 activation (mAb24 binding)": "full activation of LFA-1"}
{"smiles.text": "COC(=O)Nc1nc2cc(C(=O)c3cccs3)ccc2[nH]1", "LFA-1 activation (mAb24 binding)": "full activation of LFA-1"}
